study system: Human SARS-CoV-2_Wuhan S (SmT1) (SARS-CoV-2 (Wuhan), UniProt P0DTC2 14-1208)
method description: SPR, VHH over immobilised S
pKd: −log10 of the molar value.
Classify by measured pKd: 1.0 if it is equal to or exceeds 9, 0.0 if it is smaller.

binder	label
NRCoV2-MRed20 VHH (VHH) VHH: EVQLVESGGGSVQAGGSLRLSCAASGLSFSSYDMGWFRQAPGKEREFVAAIRESGSGTYYADSVKGRFTISRDNAKNTVYLQVSSLKPEDTAVYTCAAKPPFYGSGTYSTPRAYLYWGQGTQVTVSS	1.0
NRCoV2-11 VHH (VHH) VHH: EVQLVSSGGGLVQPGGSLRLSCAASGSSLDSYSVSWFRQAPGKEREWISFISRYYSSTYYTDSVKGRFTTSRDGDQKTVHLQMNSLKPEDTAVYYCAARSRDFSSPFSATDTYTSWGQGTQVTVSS	1.0
NRCoV2-05 VHH (VHH) VHH: EVKLVQSGGGLVQPGGSLRLSCAASGFIFSNYAMNWVRQAPGKGLEWVSGINSGGGDTRYADSVKGRFTVSRDNAKNTLYLQMNSLKPEDTGVYYCSKGPVSSYYGSGYDYRGQGTQVTVSS	0.0
NRCoV2-MRed07 VHH (VHH) VHH: EVQLVESGGGLVQPGGSLTLSCAASGSIGPFNTMGWYRQAPGNQREPAAIITRGGVTNYADSVKGRFTISRDNAKNAVYLQMDSLKPDDTAVYYCYANYGWAIPYWGNGTQVTVSS	1.0
NRCoV2-SR13 VHH (VHH) VHH: EVQLVESGGGLVTTGGSLRLSCATSGSRFGSKHMAWYRQAPGKQRDLVAAISSGGSTHYGSSVKGRFTISRDNAKSTVYLQMNSLNPEDTAVFYCNMGGWDYRSNTYIPGSRSDYWGQGTQVTVSS	0.0
NRCoV2-04 VHH (VHH) VHH: AVQLVDSGGGLVQPGGSLRLSCAASGSPFSNVVMAWYRQAPGKQRERVAFISGGGIADYIMSVKGRFTISRDNAKNTVYLQMNSLKPEDTAVYYCWSSYESTWGQGTQVTVSS	0.0
NRCoV2-MRed06 VHH (VHH) VHH: EVQLVESGGGLVQAGGSLRLSCAASGFTLAYYAIGWFRQAPGKEREGVSCISSSDGSAHYADSVKGRFTISRDNAKNTVSLQMNSLKPEDTAVYYCATDSFSSCSDYESGMDFWGKGTQVTVSS	0.0
